- measurement.protocol: Quantitative High-Throughput drug screen in 47 multiple myeloma cell lines against the NCATS MIPE library collection: OPM2_DSMZ cell viability assay (AID 1919872); further: nearly all actives have a fitted effect of over 30% in size; further: potency means the concentration at half of the fitted maximal effect
- reported.conditions: OPM2 myeloma viability, CellTiter-Glo ATP luminescence, 48 h; series mostly up to 45.8 µM
Inconclusive results are not listed. The source made the active and inactive calls. The call rests on the fitted dose curve; in most records, active means well fitted cell-killing curve with a large enough effect; inconclusive means small, poorly fitted or top-dose-only effect, or effect the other way; inactive means no such curve, though single readings can be large or run the other way.
attribute.measured: Potency

Example cases with answers are listed next.
>  <smiles.text>
O=c1[nH]nc(Sc2ncc([N+](=O)[O-])s2)n1-c1ccc2c(c1)OCCO2

>  <Potency>
8.33 µM (active)

$$$$
>  <smiles.text>
Nc1ccc(S(=O)(=O)Nc2ncccn2)cc1

>  <Potency>
inactive

$$$$
>  <smiles.text>
CC(C)c1cc(C(=O)N2Cc3ccc(CN4CCN(C)CC4)cc3C2)c(O)cc1O

>  <Potency>
0.332 µM (active)

$$$$
>  <smiles.text>
CCCNC(=O)Nc1ccc(Oc2ncnc3cc(OC)c(OC)cc23)cc1Cl

>  <Potency>
inactive

$$$$
>  <smiles.text>
CN(C)c1nc(Cc2ccc(NC(=O)c3ccc4ccccc4c3)cc2)nc(Cl)c1CC(=O)O

>  <Potency>
inactive

$$$$

Looking for the measured Potency of Cn1c2ccccc2c2c3c(c4c5ccccc5n(CCC#N)c4c21)CNC3=O , can you help?
11.8 µM (active)

====

- measurement.protocol: qHTS of pediatric cancer cell lines to identify multiple opportunities for drug repurposing: Primary screen for NB1643 cells (AID 1347099); further: nearly all actives have a fitted effect of over 50% in size
- reported.conditions: NB1643 neuroblastoma viability, CellTiter-Glo luminescence, 48 h; series mostly up to 46 µM
Records with an inconclusive call do not appear. Calls of active or inactive are those of the source. The call rests on the fitted dose curve; in most records, active means well fitted cell-killing curve with a large enough effect; inconclusive means small, poorly fitted or top-dose-only effect; inactive means no such curve, though single readings can be large or run the other way.
Please state which outcome applies, choosing from active, inactive

>  <compound>
Nc1ccc(S(=O)(=O)Nc2ncccn2)cc1

>  <group.label>
inactive

$$$$

Could you kindly confirm the outcome this assay logged for Cc1cc(N2CCOCC2)cc2[nH]c(-c3c(NC[C@@H](O)c4cccc(Cl)c4)cc[nH]c3=O)nc12 ?
active

Field: outcome | Entry: CC(=O)Nc1sc2c(c1-c1nc3ccccc3s1)CNC2
active

Kindly provide the recorded test outcome for the following compound: Cn1c2ccccc2c2c3c(c4c5ccccc5n(CCC#N)c4c21)CNC3=O
active

How did this test come out for CN(C)c1nc(Cc2ccc(NC(=O)c3ccc4ccccc4c3)cc2)nc(Cl)c1CC(=O)O ?
inactive

Lab log entry: C[C@@H](Oc1cc(-n2cnc3ccc(CN4CCN(C)CC4)cc32)sc1C(N)=O)c1ccccc1C(F)(F)F — outcome as called in the assay?
active

====

- measurement.protocol: Quantitative High-Throughput drug screen in 47 multiple myeloma cell lines against the NCATS MIPE library collection: PE2_PLB cell viability assay (AID 1919869); further: potency means the concentration at half of the fitted maximal effect; nearly all actives have a fitted effect of over 35% in size
- reported.conditions: PE2_PLB myeloma cells viability, ATP luminescence, 48 h; series mostly up to 45.8 µM
Results filed as inconclusive are left out. Activity calls are given as the source filed them. The call rests on the fitted dose curve; in most records, active means well fitted cell-killing curve with a large enough effect; inconclusive means small, poorly fitted or top-dose-only effect, or effect the other way; inactive means no such curve, though single readings can be large or run the other way.
In this exercise, the only acceptable responses are active, inactive

# example entries with known answers
>  <compound>
CC[C@H](CO)Nc1nc(NCc2ccccc2)c2ncn(C(C)C)c2n1

>  <group.label>
active

$$$$
>  <compound>
C[C@@H](Oc1cc(-c2cnn(C3CCNCC3)c2)cnc1N)c1c(Cl)ccc(F)c1Cl

>  <group.label>
active

$$$$
>  <compound>
NCC(=O)Nc1ccc(-n2nc(C(F)(F)F)cc2-c2ccc3c(ccc4ccccc43)c2)cc1

>  <group.label>
active

$$$$

How did this test come out for CNC(=O)c1cc(Oc2ccc(NC(=O)Nc3cc(C(C)(C)C)nn3-c3ccc4ncccc4c3)c(F)c2)ccn1 ?
active

For this compound, state the assay outcome: C=CCn1c(=O)c2cnc(Nc3ccc(N4CCN(C)CC4)cc3)nc2n1-c1cccc(C(C)(C)O)n1
active

What classification did C=CC(=O)Nc1cc2c(Nc3ccc(F)c(Cl)c3)ncnc2cc1C#CC(C)(C)N1CCN(C)CC1 end up with in this test?
active

# outcome recorded in this test, key = CC1(C)CC(=O)c2c(C(F)(F)F)nn(-c3ccc(C(N)=O)c(NC4CCC(OC(=O)CN)CC4)c3)c2C1 (stereo not drawn)
active

Any idea what this test logged for CCn1cc(-c2ccnc3[nH]c(-c4cccc(CN(C)C)c4)cc23)c(-c2ccc(NC(=O)N(C)C)cc2)n1 ?
active

====

- measurement.protocol: Quantitative High-Throughput drug screen in 47 multiple myeloma cell lines against the NCATS MIPE library collection: AMO1_DSMZ cell viability assay (AID 1918927; further: nearly all actives have a fitted effect of over 30% in size; further: potency means the concentration at half of the fitted maximal effect)
- reported.conditions: AMO1 myeloma cells viability, CellTiter-Glo ATP luminescence, 48 h; series mostly up to 45.8 µM
- From the text: PI: Beverly A. Mock Ph.D. Laboratory of Cancer Biology and Genetics, Center for Cancer Research, National Cancer Institute, National Institute of Health, Bethesda, Maryland […] 5; Detector; 425V; Luminescence; Viewlux PerkinElmer. […] 1. […] Briefly, the corresponding myeloma cell lines were screened in 1,536-well plates with 500 cells, 5-uL per well for inhibition of cell viability (assessed by measuring ATP levels with CellTiterGlo). […]
Results filed as inconclusive are left out. The source made the active and inactive calls. Calls come from the whole dose curve; as a rule, active = well fitted cell-killing curve with a large enough effect; inconclusive = small, poorly fitted or top-dose-only effect, or effect the other way; inactive = no such curve, though single readings can be large or run the other way.
attribute.measured: Potency

>  <compound>
CC[C@H]1CN2CCc3cc(OC)c(OC)cc3[C@H]2C[C@@H]1C[C@@H]1NCCc2cc(OC)c(OC)cc21

>  <Potency>
0.235 µM (active)

$$$$
>  <compound>
CN1CCC(CNc2ccc3ncc(-c4cccc(OC(F)(F)F)c4)n3n2)CC1

>  <Potency>
13.2 µM (active)

$$$$
>  <compound>
CC(C)c1nn(-c2c(Cl)cccc2Cl)c2nc(Cc3ccc(OCCO)cc3)[nH]c(=O)c12

>  <Potency>
inactive

$$$$
>  <compound>
CN1CCN(Cc2ccc(NC(=O)Nc3ccc(Oc4cc(NC(=O)C5CC5)ncn4)cc3)cc2C(F)(F)F)CC1

>  <Potency>
inactive

$$$$
>  <compound>
Cn1cc(-c2[nH]c3cc(NC(=O)[C@H](N)C4CCCCC4)cc4c3c2C=NNC4=O)cn1

>  <Potency>
2.96 µM (active)

$$$$

Return reported Potency values for all items listed beneath this line.
1. COc1ccc(C(=O)CC2(O)C(=O)Nc3c(Cl)ccc(Cl)c32)cc1 (centres undefined)
2. C1Cc2[nH]nc(-c3nn[nH]n3)c2C1
3. O=c1[nH]nc(Sc2ncc([N+](=O)[O-])s2)n1-c1ccc2c(c1)OCCO2
4. COC(=O)c1ccc2c(C(=Nc3ccc(N(C)C(=O)CN4CCN(C)CC4)cc3)c3ccccc3)c(O)[nH]c2c1

1: 0.526 µM (active); 2: inactive; 3: 6.62 µM (active); 4: 4.69 µM (active)

====

- measurement.protocol: Quantitative High-Throughput drug screen in 47 multiple myeloma cell lines against the NCATS MIPE library collection: OPM1_PLB cell viability assay (AID 1918989); further: nearly all actives have a fitted effect of over 40% in size
- reported.conditions: CellTiter-Glo, 48 h; series mostly up to 45.8 µM
- Source text: PI: Beverly A. Mock Ph.D. Laboratory of Cancer Biology and Genetics, Center for Cancer Research, National Cancer Institute, National Institute of Health, Bethesda, Maryland […] 5; Detector; 425V; Luminescence; Viewlux PerkinElmer. […] 1. […] Briefly, the corresponding myeloma cell lines were screened in 1,536-well plates with 500 cells, 5-uL per well for inhibition of cell viability (assessed by measuring ATP levels with CellTiterGlo). […]
Records with an inconclusive call do not appear. Calls of active or inactive are those of the source. Calls come from the whole dose curve; as a rule, active = well fitted cell-killing curve with a large enough effect; inconclusive = small, poorly fitted or top-dose-only effect, or effect the other way; inactive = no such curve, though single readings can be large or run the other way.
Respond with a class label; see active, inactive

Observe how each entry below is paired with its result.
>  <compound>
CCN1CCN(CC(=O)Nc2ccc(-c3cccc4c(=O)cc(N5CCOCC5)oc34)c3sc4ccccc4c23)CC1

>  <group.label>
active

$$$$
>  <compound>
CC(C)c1ccc(Cn2ccc3c4c(N)nc(NC5CC5)nc4ccc32)cc1

>  <group.label>
active

$$$$
>  <compound>
CC(C)C[C@H](NC(=O)CNC(=O)c1cc(Cl)ccc1Cl)B(O)O

>  <group.label>
active

$$$$
>  <compound>
CC(C)c1cc(-c2n[nH]c(=O)n2-c2ccc3c(ccn3C)c2)c(O)cc1O

>  <group.label>
active

$$$$

Per the assay record, what outcome was assigned to CC(=O)Nc1sc2c(c1-c1nc3ccccc3s1)CNC2 ?
active

GET /call?item= COc1c(OCCCN2CCOCC2)ccc2c3n(c(=NC(=O)c4cnc(N)nc4)nc12)CCN3 returns the recorded outcome of this test.
active

What call does the record list for O=C(NC1CCNCC1)c1[nH]ncc1NC(=O)c1c(Cl)cccc1Cl ?
active

State the result this test recorded for Cc1cc(Nc2nc(N[C@@H](C)c3ccc(F)cc3)c(C#N)cc2F)n[nH]1 .
active

Assay outcome for COc1cc2c(cc1-c1c(C)noc1C)ncc1[nH]c(=O)n([C@H](C)c3ccccn3)c12 : what was it?
active

Recorded call for CCN(CC)CCCCNc1ncc2cc(-c3cc(OC)cc(OC)c3)c(NC(=O)NC(C)(C)C)nc2n1 ?
active

Short answer needed: outcome of this test for CN1CC[C@@H](c2c(O)cc(O)c3c(=O)cc(-c4ccccc4Cl)oc23)[C@@H](O)C1 ?
active

Kindly provide the recorded test outcome for the following compound: CCS(=O)(=O)c1cccc(-c2cc(C(=O)NC3CCN(C)CC3)c(C)c3[nH]c4ncc(C)cc4c23)c1
active

What did the test return for C[C@]12CC[C@H](O)CC1=CCC1C2CC[C@]2(C)C(n3cnc4ccccc43)=CCC12 (some centres undefined) ?
inactive

Measured values drawn from PubChem BioAssay (NCATS) for this set.
